Hey, just so you know, these numbers are from patent US8575197B2.

# tested on: UniProt P56373
# Sequence (P56373 whole entry): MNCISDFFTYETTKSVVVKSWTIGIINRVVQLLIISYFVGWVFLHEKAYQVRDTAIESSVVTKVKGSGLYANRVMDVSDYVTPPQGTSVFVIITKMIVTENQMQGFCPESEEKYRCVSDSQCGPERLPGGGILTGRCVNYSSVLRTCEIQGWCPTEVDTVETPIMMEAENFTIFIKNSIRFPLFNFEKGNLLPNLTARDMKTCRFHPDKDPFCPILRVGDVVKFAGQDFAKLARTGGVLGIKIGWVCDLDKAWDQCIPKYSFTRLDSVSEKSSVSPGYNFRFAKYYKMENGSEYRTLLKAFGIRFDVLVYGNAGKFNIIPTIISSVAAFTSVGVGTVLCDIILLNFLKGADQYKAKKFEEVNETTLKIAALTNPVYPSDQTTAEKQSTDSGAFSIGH
# assay: P2X3 receptor inhibition, ATP-evoked Fluo-3 calcium fluorescence (FDSS 3000)
# assay setup: C6BU-1 cell transfected with human P2X3 receptor gene; ATP-evoked Fluo-3 fluorescence
outcome measure: IC50 (nM)
Give bare numbers, in nM.

These recorded examples may help you get a feel for the data.
compound="COc1ncccc1C1c2c(C(C)(C)CO)n[nH]c2C(=O)N1c1ccc(-c2cccs2)cc1 (stereo not shown) [II-110]" outcome_measure=IC50 result=24
compound="CC(C)(C)c1n[nH]c2c1C(c1ccccc1CO)N(c1ccc(-c3ccon3)cc1)C2=O (stereo not shown) [II-113]" outcome_measure=IC50 result=838
compound="COc1ccc(C(=O)C2=C(O)C(=O)N(c3ccc(-c4nccs4)cc3)C2c2ccccc2OC)cc1 (stereo not shown) [Compound I-029]" outcome_measure=IC50 result=160
compound="CC(=O)NCCOc1ccccc1C1c2c(C(C)C)n[nH]c2C(=O)N1c1ccc(-c2ccsc2)cc1 (stereo not shown) [II-176]" outcome_measure=IC50 result=10
compound="COc1ccccc1C1C(C(=O)C(C)C)=C(O)C(=O)N1c1ccc(-c2csc(C)c2)cc1 (stereo not shown) [Compound I-257]" outcome_measure=IC50 result=37
compound="Cc1cc(-c2ccc(N3C(=O)C(O)=C(C(=O)C(C)C)C3c3ccccc3CC(=O)N3CCCC3)cc2)cs1 (stereo not shown) [Compound I-526]" outcome_measure=IC50 result=219
compound="COc1cc(N2C(=O)c3[nH]nc(C(C)C)c3C2c2ccccc2OC)ccc1-c1ccsc1 (stereo not shown) [II-235]" outcome_measure=IC50 result=17
compound="COCOc1ccccc1C1C(C(=O)CC(C)C)=C(O)C(=O)N1c1ccc(-c2ccc(C)s2)cc1 (stereo not shown) [Compound I-305]" outcome_measure=IC50 result=20

Batch of 6 compounds: report IC50 for each.
1. CC(C)CC(=O)C1=C(O)C(=O)N(c2ccc(-c3ccon3)cc2)C1c1ccccc1OC(F)F (stereo not shown) [Compound I-307]
2. COc1ccccc1C1c2c(C(C)C)n[nH]c2CN1c1ccc(-c2ccsc2)cc1 (stereo not shown) [II-067]
3. COc1ccccc1C1C(C(=O)c2cc[nH]c2)=C(O)C(=O)N1c1ccc(-c2csc(C)c2)cc1 (stereo not shown) [Compound I-553]
4. CC(C)(C)C(=O)C1=C(O)C(=O)N(c2ccc(-c3ccon3)cc2)C1c1ccccc1OCC#N (stereo not shown) [Compound I-103]
5. COc1ccc(F)cc1C1c2c(C(C)(C)C)n[nH]c2C(=O)N1c1ccc(-c2ccon2)cc1 (stereo not shown) [II-062]
6. COc1ccccc1C1C(C(=O)c2cccnc2)=C(O)C(=O)N1c1ccc(-c2ccsc2)cc1 (stereo not shown) [Compound I-460]

Resp:
1: 158; 2: 153; 3: 337; 4: 355; 5: 112; 6: 103

Batch lookup, IC50 per entry.
1. COc1ccc(C(=O)C2=C(O)C(=O)N(c3ccc(-c4cccnc4)cc3)C2c2ccccc2OC)cc1 (stereo not shown) [Compound I-034]
2. COCCOc1ncccc1C1c2c(C(C)C)n[nH]c2C(=O)N1c1ccc(-c2ccsc2)cc1 (stereo not shown) [II-278]
3. CC(C)c1n[nH]c2c1C(c1ccccc1OCCS(C)(=O)=O)N(c1ccc(-c3ccsc3)cc1)C2=O (stereo not shown) [II-245]
4. CSc1ccc(N2C(=O)C(O)=C(C(=O)C(C)C)C2c2ccccc2OCCCO)cc1 (stereo not shown) [Compound I-476]
5. COCc1ccccc1C1C(C(=O)C(C)C)=C(O)C(=O)N1c1ccc(-c2ccc(C)s2)cc1 (stereo not shown) [Compound I-266]

Resp:
700
13
6
51
25

Please state IC50 for every compound in the list that follows.
1. COCc1ccccc1C1C(C(=O)C(C)C)=C(O)C(=O)N1c1ccc(-c2ccoc2)cc1 (stereo not shown) [Compound I-204]
2. CC(C)c1n[nH]c2c1C(c1ccccc1CN(C)C)N(c1ccc(-c3ccsc3)cc1)C2=O (stereo not shown) [II-084]
3. Cc1nc(-c2ccc(N3C(=O)C(O)=C(C(=O)C(C)C)C3c3ccccc3OCC(C)C)cc2)no1 (stereo not shown) [Compound I-451]
4. COCOc1ccccc1C1C(C(=O)C(C)C)=C(O)C(=O)N1c1ccc(-c2cccs2)cc1 (stereo not shown) [Compound I-227]
5. COCCOc1cc(F)ccc1C1C(C(=O)CC(C)C)=C(O)C(=O)N1c1ccc(-c2noc(C)n2)cc1 (stereo not shown) [Compound I-365]
6. COc1ccccc1C1C(C(=O)C(C)(C)C)=C(O)C(=O)N1c1ccc(-c2ccsc2Cl)cc1 (stereo not shown) [Compound I-192]

Resp:
43
18
19
8
82
612

Could you tell me IC50 for each of these compounds? They are listed below.
1. Cc1ccc(-c2ccc(N3C(=O)C(O)=C(C(=O)CC(C)C)C3c3cccnc3C(N)=O)cc2)s1 (stereo not shown) [Compound I-572]
2. COCCCOc1ccccc1C1C(C(=O)C(C)C)=C(O)C(=O)N1c1ccc(SC)cc1 (stereo not shown) [Compound I-484]
3. COCCOc1ncccc1C1C(C(=O)C(C)C)=C(O)C(=O)N1c1ccc(SC)cc1 (stereo not shown) [Compound I-485]
4. Cc1ccc(-c2ccc(N3C(=O)C(O)=C(C(=O)CC(C)C)C3c3cccnc3C(=O)OC(C)C)cc2)s1 (stereo not shown) [Compound I-504]
5. CC(C)CC(=O)C1=C(O)C(=O)N(c2ccc(-c3ccsc3)cc2)C1c1ccccc1OC(F)F (stereo not shown) [Compound I-290]
6. CC(C)C(=O)C1=C(O)C(=O)N(c2ccc(-c3ccsc3)cc2)C1c1ccccc1OC(F)F (stereo not shown) [Compound I-301]

Resp:
171
91
218
238
51
18
